# maps each entry to its TGI
system: NCI-H460 lung; test: NCI tumour cell line growth inhibition, 48 h

Some solved entries appear below for comparison.
{"columns": ["compound", "value"],
 "data": [
  ["CN1CCN(Cc2ccc(NC(=O)c3cncc(C#Cc4c(N)ncc5ccc(F)cc45)c3)cc2C(F)(F)F)CC1", "3.33 µM"],
  ["Cc1ccc(-c2c(C#N)c(O)n(NS(=O)(=O)c3ccccc3)c(=O)c2C#N)cc1", "> 100 µM"],
  ["C=CC(C)(C)c1cc([C@@H]2COc3cc(O)ccc3C2=O)c(O)c(OC)c1OC", "41.7 µM"]
]}

The recorded TGI for entry `Cc1nn(C(=O)CC(=O)Nc2ccccc2Cl)c(C)c1N=Nc1ccccc1Cl` equals > 100 µM

Note to self: TGI recorded for `O=[N+]([O-])c1ccc(-c2ccc(C3=Nn4c(nnc4-c4ccc(Cl)cc4)SC3)o2)cc1` was > 100 µM

For record `O=C1c2ccccc2C(=O)c2c1c1cc(O)ccc1n2Cc1ccc(Cl)cc1Cl` the listed TGI is 11.8 µM

###

Consider the following molecules and their measured TGI readings.
system: OVCAR-3 ovarian; experiment: NCI tumour cell line growth inhibition, 48 h

Below, each entry is followed by its recorded TGI result.
{"columns": ["molecule", "parameter", "value"],
 "data": [
  ["CC(=O)OC1C(OC/C2=C/C3[C@@H](C(C)C)CC=C(C)[C@@H]3CC(OC(=O)/C=C/c3cn(C)cn3)[C@]3(C)C=C[C@@]2(O)O3)OCC(O)C1O (stereo not given in full)", "TGI", "0.0268 µM"],
  ["O=C(C(=O)n1ccc2ccccc21)c1c[nH]c2ccccc12", "TGI", "> 10 µM"]
]}

Summary line: `CC(=O)/C=C\C(=O)NNS(=O)(=O)c1ccc(C)cc1` , OVCAR-3 ovarian, reported TGI = > 100 µM

Log: OVCAR-3 ovarian, molecule `O=c1n(CCO)nc2n1CCCN2` , TGI = > 100 µM

Entry `O=C(Nc1cccc(Cl)c1)c1cc2cc(N=Nc3ccc(Br)cc3)ccc2oc1=O` under OVCAR-3 ovarian had TGI of > 100 µM

###

# reported TGI; entries follow
system: HOP-92 NSCLC; test: NCI tumour cell line growth inhibition, 48 h
Give just the number in µM; leave the unit off.

Answered cases to consult:
{"columns": ["compound", "unit.of.measurement", "value"],
 "data": [
  ["CCS(=O)(=O)Nc1ccc(Oc2ccc(F)cc2F)c(-c2cn(C)c(=O)c3[nH]ccc23)c1", "µM", 28.3],
  ["C[As](C)SCC(COC(=O)c1ccccc1)OC(=O)c1ccccc1 (centres undefined)", "µM", 1.74],
  ["COc1ccc(C2Oc3cc(OC)c(O)cc3[C@@H]2C)cc1 (some centres undefined)", "µM", 72.1],
  ["COc1ccc(N=Nc2ccc3oc(=O)c(C(=O)Nc4ccc(OC)cc4)cc3c2)cc1", "µM", 50.1]
]}

Would you kindly look at the next entry?
// `COc1ccc(/C(C)=C(\c2ccc(Cl)cc2)c2ccc(OCCN3CCCCC3)cc2)cc1F` : TGI value = 6.08

###

GI50 values, listed per item
test system: HCT-116 colon; assay: NCI tumour cell line growth inhibition, 48 h

Take a look at these entries with their results.
{"columns": ["compound", "GI50"],
 "data": [
  ["COc1ccc2c(c1)CCC1C2CCC2(C)C1CC[C@@]2(O)CNC(=O)/C=C/c1ccc(O)c(O)c1 (stereo not given in full)", "2.95 µM"],
  ["O=C(/C=C/CN1CCCCC1)Nc1cc2c(Nc3ccc(F)c(Cl)c3F)ncnc2cc1OCCOC(F)F", "1.31 µM"],
  ["COc1ccc(/C(C)=C(\\c2ccc(Cl)cc2)c2ccc(OCCN3CCCCC3)cc2)cc1F", "2.04 µM"],
  ["CN(C)c1ccc(/C=C/C(=O)c2ccc(Nc3nc(Nc4ccc(F)cc4)nc(Nc4ccc(Cl)cc4)n3)cc2)cc1", "3.3 µM"]
]}

The compound CCCCCCn1c(=N)n(CC(O)COc2cccc(C)c2)c2ccccc21 (stereo not given) showed GI50 equal to 1.36 µM

###

tested on: MDA-MB-231 breast; assay: NCI tumour cell line growth inhibition, 48 h; in the data active = GI50 below about 0.43 µM; inactive = the rest
Permitted responses: true (1) (active), false (0) (inactive)

Look over these answered cases.
{"columns": ["molecule", "class.label"],
 "data": [
  ["COc1ccc(C2CC(c3cccc(Nc4ccnc5cc(Cl)ccc45)c3)=NN2c2ccc(Cl)cc2)cc1 (stereo unspecified)", "false (0)"],
  ["CCN(CC)CCCC(C)NC(=S)N/N=C(\\C)c1ccccn1 (stereo unspecified)", "false (0)"],
  ["CNCc1ccc(C)c(NC(=O)c2ccc(Nc3nc(-c4ccccc4)c4ccccc4n3)cc2)c1", "false (0)"],
  ["CC(=O)OC1C(OC/C2=C/C3[C@@H](C(C)C)CC=C(C)[C@@H]3CC(OC(=O)/C=C/c3cn(C)cn3)[C@]3(C)C=C[C@@]2(O)O3)OCC(O)C1O (stereo partly specified)", "true (1)"],
  ["COc1ccc(/C=C2\\CN(Cc3cn(CCCNc4ccnc5cc(Cl)ccc45)nn3)C/C(=C\\c3ccc(OC)cc3)C2=O)cc1", "false (0)"]
]}

Check the results log: what was the call for `C=CC(=O)N1CC[C@@H](Oc2nc(Nc3ccc(N4CCC(N5CCN(C)CC5)CC4)cc3)c(C(N)=O)nc2CC)C1` ?
false (0)

###

system: OVCAR-3 ovarian; test: NCI tumour cell line growth inhibition, 48 h; in the data active = GI50 below about 0.43 µM; inactive = the rest
Pick one: active, inactive

{"columns": ["compound", "assay.system", "class.label"],
 "data": [
  ["COc1c(C)cnc(Cn2cnc3c(Cl)nc(N)nc32)c1C", "OVCAR-3 ovarian", "inactive"],
  ["CC(C)OC(=S)[S-].[Au+].c1ccc([PH+](c2ccccc2)c2ccccc2)cc1", "OVCAR-3 ovarian", "active"],
  ["C=C1C(=O)O[C@H]2[C@H]1CC/C(Cn1cc(CNC(=O)c3cc4ccccc4[nH]3)nn1)=C\\CC[C@@]1(C)O[C@@H]21", "OVCAR-3 ovarian", "inactive"],
  ["Cc1nc2cc(NC(=O)CN3CCN(CCN4C(=O)c5cccc6cccc(c56)C4=O)CC3)ccc2s1", "OVCAR-3 ovarian", "inactive"],
  ["Cn1c([N+](=O)[O-])cnc1/C=C1\\Oc2ccc(Cl)cc2C1=O", "OVCAR-3 ovarian", "active"],
  ["O=C(/C=C\\c1ccc(Cl)c(Cl)c1)c1ccccc1", "OVCAR-3 ovarian", "inactive"],
  ["CCOC(=O)C(Cc1ccc(N(CCCl)CCCl)cc1)NC(=O)C(CC(C)C)NC(C)=O (configuration not stated)", "OVCAR-3 ovarian", "active"],
  ["CCS(=O)(=O)Nc1ccc(Oc2ccc(F)cc2F)c(-c2cn(C)c(=O)c3[nH]ccc23)c1", "OVCAR-3 ovarian", "active"]
]}

Assay result, entry `COc1ccc(C(=O)CC(Cl)=C(Cl)Cl)cc1` — outcome?
inactive

Identify the outcome logged in this assay for the compound shown: `COc1cc2c(cc1Nc1nc(Nc3ccsc3C(N)=O)c3cc[nH]c3n1)N(C(=O)CN(C)C)CCC2`
inactive

Record request — test call for `Cc1cccc(NC(=O)c2sc3nc4c(cc3c2N)CCC4)c1C`
active

Short answer needed: outcome of this test for `Cc1nn(-c2ccccc2)c2ncc3c(c12)C(=O)N(Cc1ccccc1)C3=O` ?
inactive

###

tested on: SR leukemia; test: NCI tumour cell line growth inhibition, 48 h
TGI values by entry
Numbers only here, please. The scale is µM.

{"columns": ["molecule", "assay.system", "TGI, µM"],
 "data": [
  ["O=C(C(Cl)=C(Nc1ccccc1)Nc1ccccc1)C(Cl)Cl", "SR leukemia", 49.4]
]}

Query molecule follows.
TGI for `CN(C)CCCNc1ccc2nnn3c4ccc([N+](=O)[O-])cc4c(=O)c1c23` is 6.03

###

system: MOLT-4 leukemia; assay: NCI tumour cell line growth inhibition, 48 h
TGI values by entry

// worked examples, TGI included
{"columns": ["compound", "value"],
 "data": [
  ["N#Cc1c(-c2ccc(Cl)cc2)n([O-])c2ccccc2[n+]1=O", "4.77 µM"],
  ["Nc1n[nH]c(=O)c2c1c(Br)cn2C1OC(CO)C(O)C1O (centres undefined)", "9.3 µM"],
  ["COc1ccc2nccc(C3OC(=O)N4CCC(=O)CC34)c2c1 (centres undefined)", "> 100 µM"],
  ["CC(=O)OC1C(OC/C2=C/C3[C@@H](C(C)C)CC=C(C)[C@@H]3CC(OC(=O)/C=C/c3cn(C)cn3)[C@]3(C)C=C[C@@]2(O)O3)OCC(O)C1O (some centres undefined)", "> 50 µM"],
  ["CCC1OC(=O)C(C)C(OC2CC(C)(O)C(O)C(C)O2)C(C)C(O)C(C)(O)CC(C)C(=O)C(C)C(O)C1C (centres undefined)", "> 300 µM"]
]}

Noted for `NC(N)=NS(=O)(=O)c1ccc(NC(=O)c2c3ccccc3nc3ccccc23)cc1` : its TGI reads > 100 µM

Measured TGI, `COCN1C(=O)[C@@H]2C[C@@H](OC/C=C/CBr)CN2C(=O)c2ccccc21` : > 100 µM

Note to self: TGI recorded for COc1cc(C2c3cc4c(c(O)c3C(=O)C3CCC(=O)N32)OCO4)cc(OC)c1OC (centres undefined) was > 100 µM

The reported TGI of the compound `COc1cc(OC)cc(N(C)Cc2cnc3nc(N)nc(N)c3c2C)c1` was > 100 µM

Data point: `O=C(Nc1cccc(Cl)c1)c1cc2cc(N=Nc3ccc(Br)cc3)ccc2oc1=O` ; TGI = 77.7 µM

Record `OB1OCc2ccccc21` , field TGI: > 100 µM

Per the record, COC(=O)[C@H]1ON2O[C@H](OC3CCCC[C@@H]3c3ccccc3)C[C@@H]3CC[C@H]1[C@@]32C (some centres undefined) has TGI of > 100 µM

`Cc1cc(N2CCOCC2)nc(N(CCNc2ccnc3cc(Cl)ccc23)Cc2cccs2)n1` has a reported TGI of 5.93 µM

`Cc1nn(-c2ccccc2)c2ncc3c(c12)C(=O)N(Cc1ccccc1)C3=O` has a reported TGI of 40.3 µM

Value of TGI reported for the compound `O=C1[C@@H]2C3C=CC([C@H]4C(=O)N(CO)C(=O)[C@@H]34)[C@@H]2C(=O)N1CO` is > 100 µM

Lab note: CC(C)CCC[C@@H](C)[C@H]1CC[C@H]2[C@@H]3CC=C4CC(OCCCCN(O)CCCSC5OC(CO)C(O)C(O)C5O)CC[C@]4(C)[C@H]3CC[C@]12C (some centres undefined) gave TGI of > 100 µM

Just so you know, measured TGI for CC[N+]1(C)CCC(O)(/C=C/c2ccccc2)C(C(=O)/C=C/c2ccccc2)C1 (centres undefined) came out at 7.11 µM

Data point: COc1ccccc1C1C(Cl)C(=O)N1NC(=O)Cc1ccccc1 (centres undefined) ; TGI = > 100 µM

Value of TGI reported for the compound `COC[C@@H](N=Cc1ccc(OC)cc1)C(C)C` is > 100 µM

Where do these numbers come from? They come from PubChem BioAssay (NCI).
